- measured.target: ATM kinase (Homo sapiens (Human), UniProt Q13315)
- Sequence (Q13315 whole entry): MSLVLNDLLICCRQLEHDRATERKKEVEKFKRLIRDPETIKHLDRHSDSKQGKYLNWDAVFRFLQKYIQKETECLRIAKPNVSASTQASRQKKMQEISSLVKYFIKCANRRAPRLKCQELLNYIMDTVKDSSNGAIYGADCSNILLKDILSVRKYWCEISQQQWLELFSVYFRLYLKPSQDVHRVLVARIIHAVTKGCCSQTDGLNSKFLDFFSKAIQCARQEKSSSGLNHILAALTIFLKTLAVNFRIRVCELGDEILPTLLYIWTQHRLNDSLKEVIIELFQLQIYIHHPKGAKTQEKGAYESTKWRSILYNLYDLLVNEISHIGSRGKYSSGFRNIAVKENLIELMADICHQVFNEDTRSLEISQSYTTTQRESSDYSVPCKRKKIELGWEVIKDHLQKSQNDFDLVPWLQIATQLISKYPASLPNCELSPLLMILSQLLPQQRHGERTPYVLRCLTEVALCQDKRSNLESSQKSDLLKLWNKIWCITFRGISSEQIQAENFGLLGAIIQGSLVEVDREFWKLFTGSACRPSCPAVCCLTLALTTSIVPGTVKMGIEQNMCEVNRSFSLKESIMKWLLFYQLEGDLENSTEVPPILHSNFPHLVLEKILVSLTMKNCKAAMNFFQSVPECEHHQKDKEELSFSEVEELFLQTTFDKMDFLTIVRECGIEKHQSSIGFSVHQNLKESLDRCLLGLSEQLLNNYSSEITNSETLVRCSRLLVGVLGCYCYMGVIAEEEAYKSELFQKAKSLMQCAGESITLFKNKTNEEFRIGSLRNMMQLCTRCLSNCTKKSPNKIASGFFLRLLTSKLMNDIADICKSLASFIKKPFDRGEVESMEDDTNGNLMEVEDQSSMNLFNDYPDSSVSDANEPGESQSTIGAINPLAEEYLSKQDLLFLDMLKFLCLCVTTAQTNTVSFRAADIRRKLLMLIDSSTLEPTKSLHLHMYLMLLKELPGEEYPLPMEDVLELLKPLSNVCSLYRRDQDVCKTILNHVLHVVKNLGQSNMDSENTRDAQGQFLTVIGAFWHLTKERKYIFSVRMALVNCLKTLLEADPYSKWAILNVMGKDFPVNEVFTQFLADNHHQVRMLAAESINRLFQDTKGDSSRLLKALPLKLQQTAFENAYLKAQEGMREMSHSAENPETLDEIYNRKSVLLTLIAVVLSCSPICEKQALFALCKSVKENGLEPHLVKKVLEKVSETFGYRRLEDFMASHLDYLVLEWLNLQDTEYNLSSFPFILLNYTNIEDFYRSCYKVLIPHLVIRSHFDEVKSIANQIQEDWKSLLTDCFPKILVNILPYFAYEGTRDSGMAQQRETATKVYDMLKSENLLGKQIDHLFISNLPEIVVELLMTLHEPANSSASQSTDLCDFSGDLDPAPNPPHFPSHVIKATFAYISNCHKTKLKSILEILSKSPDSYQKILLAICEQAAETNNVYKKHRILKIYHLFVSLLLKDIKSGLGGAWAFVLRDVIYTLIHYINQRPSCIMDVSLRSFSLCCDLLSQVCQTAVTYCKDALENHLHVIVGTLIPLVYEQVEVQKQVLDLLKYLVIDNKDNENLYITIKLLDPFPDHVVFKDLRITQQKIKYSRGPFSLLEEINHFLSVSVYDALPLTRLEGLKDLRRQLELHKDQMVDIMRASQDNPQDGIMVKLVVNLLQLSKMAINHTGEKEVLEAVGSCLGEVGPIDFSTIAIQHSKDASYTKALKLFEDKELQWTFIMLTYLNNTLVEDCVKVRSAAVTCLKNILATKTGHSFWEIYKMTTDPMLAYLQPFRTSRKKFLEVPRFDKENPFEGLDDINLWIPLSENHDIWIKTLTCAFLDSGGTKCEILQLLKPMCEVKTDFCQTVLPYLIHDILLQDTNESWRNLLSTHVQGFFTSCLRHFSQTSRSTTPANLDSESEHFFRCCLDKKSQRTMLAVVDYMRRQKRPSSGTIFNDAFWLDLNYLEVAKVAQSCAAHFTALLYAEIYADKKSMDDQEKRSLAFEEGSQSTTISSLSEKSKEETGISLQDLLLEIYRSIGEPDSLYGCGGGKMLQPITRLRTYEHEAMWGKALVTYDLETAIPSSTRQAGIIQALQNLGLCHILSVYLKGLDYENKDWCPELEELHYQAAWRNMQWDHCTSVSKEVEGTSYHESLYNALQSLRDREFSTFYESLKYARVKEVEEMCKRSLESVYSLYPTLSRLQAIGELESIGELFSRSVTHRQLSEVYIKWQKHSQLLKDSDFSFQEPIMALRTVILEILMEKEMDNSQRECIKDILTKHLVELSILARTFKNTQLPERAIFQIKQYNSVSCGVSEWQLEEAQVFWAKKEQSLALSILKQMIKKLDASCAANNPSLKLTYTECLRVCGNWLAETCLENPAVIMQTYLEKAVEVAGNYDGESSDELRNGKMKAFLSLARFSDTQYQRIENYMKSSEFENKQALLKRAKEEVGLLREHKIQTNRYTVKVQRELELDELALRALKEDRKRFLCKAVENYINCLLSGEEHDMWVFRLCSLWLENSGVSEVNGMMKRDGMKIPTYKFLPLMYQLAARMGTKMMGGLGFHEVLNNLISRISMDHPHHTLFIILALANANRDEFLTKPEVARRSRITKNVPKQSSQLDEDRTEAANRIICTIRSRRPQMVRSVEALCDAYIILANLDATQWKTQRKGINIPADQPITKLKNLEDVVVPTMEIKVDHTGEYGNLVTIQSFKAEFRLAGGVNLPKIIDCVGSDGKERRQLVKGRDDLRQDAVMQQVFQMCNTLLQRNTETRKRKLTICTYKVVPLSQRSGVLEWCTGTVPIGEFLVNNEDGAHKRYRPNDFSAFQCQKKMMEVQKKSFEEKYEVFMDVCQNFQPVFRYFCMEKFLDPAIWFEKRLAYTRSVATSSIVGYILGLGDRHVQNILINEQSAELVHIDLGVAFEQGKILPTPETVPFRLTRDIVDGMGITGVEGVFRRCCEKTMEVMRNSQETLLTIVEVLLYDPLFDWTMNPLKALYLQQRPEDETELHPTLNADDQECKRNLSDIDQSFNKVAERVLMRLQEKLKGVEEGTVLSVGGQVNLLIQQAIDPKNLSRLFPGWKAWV
- protocol.summary: Assay a) ATM cellular potency assay (pATM Ser1981 in X-ray irradiated HT29 cells)
- condition.label: HT29 cells, pATM Ser1981 after X-ray irradiation; geometric mean where repeated; read-out: Assay a) ATM Cell IC50
Where a name gives a salt, the structure may show the parent alone.
quantity.name: IC50 (nM)

1) Cn1c(=O)n(C2CCOCC2)c2c3cc(-c4ccc(OCCCN5CCCCC5)nc4)ccc3ncc21 [Example 37]	1.2
2) Cn1c(=O)n(C2CCC2)c2c3cc(-c4ccc(OCCCN5CCCCC5)nc4)ccc3ncc21 [Example 57, trifluoroacetic acid salt]	0.434
3) CO[C@@H]1CC[C@@H](n2c(=O)n(C)c3cnc4ccc(-c5ccc(OCCCN6CCCCC6)nc5)cc4c32)C1 [Example 64]	0.741
4) CO[C@H]1C[C@@H](n2c(=O)[nH]c3cnc4ccc(-c5ccc(OCCCN6CCCC6)nc5)cc4c32)C1 [Example 35]	0.589

P. CO[C@@H]1CC[C@@H](n2c(=O)n(C)c3cnc4cc(F)c(-c5ccc(OCCCN(C)C)nc5)cc4c32)C1 [Example 62]
Q. CO[C@@H]1CC[C@@H](n2c(=O)n(C)c3cnc4ccc(-c5ccc(OCCCN(C)C)nc5F)cc4c32)C1 [Example 68]
R. CN(C)CCCOc1ccc(-c2ccc3ncc4c(c3c2)n(C2(C)CCOCC2)c(=O)n4C)cn1 [Example 7]
**Query** # ascending order, key=IC50 Present the labels in the sequence the task asks for.
**Result** Q, P, R

====

- measured.target: mTOR (Homo sapiens (Human), UniProt P42345)
- protocol.summary: Assay d) mTOR cellular potency assay (phospho-AKT Ser473 in MDA-MB-468 cells)
- condition.label: MDA-MB-468 cells, phospho-AKT Ser473, 2 h; geometric mean where repeated; read-out: Assay d) mTOR Cell IC50
quantity.name: IC50 (µM)

1. CO[C@@H]1CC[C@@H](n2c(=O)n(C)c3cnc4ccc(-c5ccc(OCCCN6CCCC6)nc5)cc4c32)C1 [Example 67]	0.996
2. CO[C@@H]1CC[C@@H](n2c(=O)n(C)c3cnc4ccc(-c5ccc(OCCCN(C)C)nc5)cc4c32)C1 [Example 25]	1.19
3. CN(C)CCCOc1ccc(-c2ccc3ncc4c(c3c2)n(C2(C)CCOCC2)c(=O)n4C)cn1 [Example 7]	0.266
4. Cn1c(=O)n([C@H]2CCCOC2)c2c3cc(-c4ccc(OCCCN5CCCC5)nc4)ccc3ncc21 [Example 29]	0.605
5. Cn1c(=O)n(C2CCOCC2)c2c3cc(-c4ccc(OCCCN5CCC5)nc4)ccc3ncc21 [Example 39]	1.27

P. CN(C)CCCOc1ccc(-c2ccc3ncc4c(c3c2)n([C@H]2CCCOC2)c(=O)n4C)cn1 [Example 17]
Q. CO[C@H]1CC[C@H](n2c(=O)n(C)c3cnc4ccc(-c5ccc(OCCCN6CCCC6)nc5)cc4c32)C1 [Example 66]
**Query** I would appreciate it if you could say which entry, P or Q , has the lower IC50 value. Indicate which entry you chose by stating its label.
**Result** P

====

- measured.target: PI3K-α (Homo sapiens)
- Sequence (P42336 whole entry, looked up): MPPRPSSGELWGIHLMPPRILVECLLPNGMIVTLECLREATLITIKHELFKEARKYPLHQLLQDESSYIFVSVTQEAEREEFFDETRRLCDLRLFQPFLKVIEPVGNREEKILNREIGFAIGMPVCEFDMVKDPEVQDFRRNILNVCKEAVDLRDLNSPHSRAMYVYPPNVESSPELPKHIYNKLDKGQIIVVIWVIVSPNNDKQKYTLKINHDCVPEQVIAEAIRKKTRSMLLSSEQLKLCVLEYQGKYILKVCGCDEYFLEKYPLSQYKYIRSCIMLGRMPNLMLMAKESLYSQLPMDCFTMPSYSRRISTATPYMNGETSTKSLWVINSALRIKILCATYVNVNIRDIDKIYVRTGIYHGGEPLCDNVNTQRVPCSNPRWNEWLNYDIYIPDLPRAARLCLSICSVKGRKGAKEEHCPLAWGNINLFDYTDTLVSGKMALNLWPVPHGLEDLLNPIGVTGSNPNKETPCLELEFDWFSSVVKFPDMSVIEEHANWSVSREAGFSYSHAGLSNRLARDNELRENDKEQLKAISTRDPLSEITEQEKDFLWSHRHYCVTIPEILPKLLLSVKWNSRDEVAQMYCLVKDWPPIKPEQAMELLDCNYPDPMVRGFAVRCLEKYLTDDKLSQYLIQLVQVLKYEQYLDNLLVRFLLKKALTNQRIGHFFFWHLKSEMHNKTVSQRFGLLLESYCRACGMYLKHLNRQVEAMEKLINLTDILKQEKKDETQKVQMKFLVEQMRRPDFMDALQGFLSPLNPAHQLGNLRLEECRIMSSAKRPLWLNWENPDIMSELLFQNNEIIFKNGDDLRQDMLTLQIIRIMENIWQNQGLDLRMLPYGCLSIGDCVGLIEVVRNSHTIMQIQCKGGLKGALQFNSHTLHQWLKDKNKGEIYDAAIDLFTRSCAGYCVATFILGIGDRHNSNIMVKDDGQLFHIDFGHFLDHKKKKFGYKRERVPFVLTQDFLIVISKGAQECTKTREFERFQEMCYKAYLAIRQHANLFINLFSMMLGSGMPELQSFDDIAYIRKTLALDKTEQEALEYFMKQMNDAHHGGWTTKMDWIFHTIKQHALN
- protocol.summary: Assay c) PI3K cellular potency assay (phospho-Akt T308 ELISA in BT474 cells)
- condition.label: BT474 cells, phospho-Akt T308, 2 h; geometric mean where repeated; read-out: Assay c) PI3Kα Cell IC50
pIC50: −log10 of the molar value.
quantity.name: pIC50

Use these answered entries as a reference point.
1. CNCCCOc1ccc(-c2ccc3ncc4c(c3c2)n([C@@H]2CCCOC2)c(=O)n4C)cn1	6.78
2. CO[C@H]1C[C@@H](n2c(=O)n(C)c3cnc4ccc(-c5ccc(OCCCN6CCCCC6)nc5)cc4c32)C1	4.91
3. CN(C)CCCOc1ccc(-c2ccc3ncc4c(c3c2)n(C2CCC2)c(=O)n4C)cn1	6.10
4. Cn1c(=O)n([C@H]2CCCOC2)c2c3cc(-c4ccc(OCCCN5CCCC5)nc4)ccc3ncc21	5.78
5. Cn1c(=O)n([C@@H]2CCCOC2)c2c3cc(-c4ccc(OCCCN5CCCCC5)nc4)ccc3ncc21	5.53
6. CO[C@H]1C[C@@H](n2c(=O)n(C)c3cnc4ccc(-c5ccc(OCCCN(C)C)nc5F)cc4c32)C1	5.56

I. Cn1c(=O)n([C@H]2C[C@@H](O)C2)c2c3cc(-c4ccc(OCCCN5CCC5)nc4)ccc3ncc21
II. CNCCCOc1ccc(-c2ccc3ncc4c(c3c2)n([C@H]2C[C@@H](OC)C2)c(=O)n4C)cn1
III. CN(C)CCCOc1ccc(-c2ccc3ncc4c(c3c2)n([C@H]2CCCOC2)c(=O)n4C)c(F)n1
IV. CO[C@H]1C[C@@H](n2c(=O)n(C)c3cnc4ccc(-c5ccc(OCCCN(C)C)nc5)cc4c32)C1
**Query** Arrange by pIC50, high to low. Present the labels in the sequence the task asks for.
**Result** II, I, III, IV

A. CN(C)CCCOc1ccc(-c2ccc3ncc4c(c3c2)n([C@@H]2CCCOC2)c(=O)n4C)c(F)n1
B. Cn1c(=O)n([C@@H]2CCCOC2)c2c3cc(-c4ccc(OCCCN5CCC5)nc4)ccc3ncc21
**Query** I would appreciate it if you could say which entry, A or B , has the lower pIC50 value. Indicate which entry you chose by stating its label.
**Result** A
